# target.of.assay: MaxL homodimer (Homo sapiens, UniProt P61244 1-160)
# Sequence (P61244 whole entry): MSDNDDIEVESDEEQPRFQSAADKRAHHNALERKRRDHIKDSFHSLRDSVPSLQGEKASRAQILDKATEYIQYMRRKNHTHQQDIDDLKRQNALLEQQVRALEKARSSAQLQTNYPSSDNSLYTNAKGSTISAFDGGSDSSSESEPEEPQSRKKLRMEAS
# protocol: universal protein-binding microarray (PBM); PBS-based mixture, 10 nM His-tagged protein dimer, 2% milk, 200 ng/uL BSA, 50 ng/uL salmon testes DNA, 0.02% TX-100; detection with Alexa 488 anti-His antibody;; high values mean tight binding;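 note: fluorescence intensity normalized to that of the highest-ranked 8-mer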
# details: protein: recombinant; tags: C-terminal His-tag (pET21a); chain copies: 2; dsDNA, one strand shown
Over roughly 33,000 sequences, “normalized occupancy” has its median near 0.075; the highest 2% begin near 0.095. This excerpt belongs to a sample that is enriched for the highest values.
recorded.endpoint: binding signal (normalized occupancy)
Numeric only. Scale: normalized occupancy

1. CATATGGG 0.103
2. AGGTGCTC 0.0817
3. ACATGGCC 0.0878
4. GAGCACAA 0.0775
5. ACAGCTAT 0.0762

query: Identify measured binding signal obtained with MaxL homodimer (Homo sapiens, UniProt P61244 1-160) for AGCATATG .
result: 0.103

query: Provide binding signal, recorded with MaxL homodimer (Homo sapiens, UniProt P61244 1-160), of TAAGAGTA
result: 0.0797

query: # assay system MaxL homodimer (Homo sapiens, UniProt P61244 1-160): give binding signal of CCGTGCTC
result: 0.0737

query: Provide MaxL homodimer (Homo sapiens, UniProt P61244 1-160) binding signal reading for ATTTGAGA .
result: 0.0896

query: Provide binding signal, system MaxL homodimer (Homo sapiens, UniProt P61244 1-160), entry GCATGACA
result: 0.088

query: Param request: binding signal | system MaxL homodimer (Homo sapiens, UniProt P61244 1-160) | item CCATGATC
result: 0.0848

query: Provide measured binding signal on MaxL homodimer (Homo sapiens, UniProt P61244 1-160) for TCATGGGA please.
result: 0.0807

query: Send back MaxL homodimer (Homo sapiens, UniProt P61244 1-160) binding signal of AGCATATC only.
result: 0.0822
